test system: NCI-H810 (Non-Small Cell Lung Carcinoma); experiment: combination Emax (second highest fraction inhibited in the dose matrix, 72 h); higher = more inhibition; extreme values may be limits of the assay
observable: combination Emax

[[record]]
molecule = "Cc1cc2ncnn2cc1Nc1ncc2c(n1)n(C1CCOCC1)c(=O)n2C [AZD7648] + C=CCn1c(=O)c2cnc(Nc3ccc(N4CCN(C)CC4)cc3)nc2n1-c1cccc(C(C)(C)O)n1 [AZD1775] (first compound max 10 µM, partner max 1 µM)"
observable = "combination Emax"
value_measured = 0.881

[[record]]
molecule = "COc1cccc(OCCCN)c1-c1cc(Nc2cnc(C#N)cn2)n[nH]1 [Prexasertib] + CCc1c2c(nc3ccc(O)cc13)-c1cc3c(c(=O)n1C2)COC(=O)[C@]3(O)CC [SN-38] (first compound max 1 µM, 7x7, partner max 0.3 µM)"
observable = "combination Emax"
value_measured = 0.98

[[record]]
molecule = "Cc1cc2ncnn2cc1Nc1ncc2c(n1)n(C1CCOCC1)c(=O)n2C [AZD7648] + C[C@@H]1COCCN1C2=NC(=NC(=C2)C3(CC3)[S@](=N)(=O)C)C4=C5C=CNC5=NC=C4 [AZD6738] (first compound max 10 µM, 7x7, partner max 10 µM)"
observable = "combination Emax"
value_measured = 0.697

[[record]]
molecule = "CCN(CCO)CCCOc1ccc2c(Nc3cc(CC(=O)Nc4cccc(F)c4)[nH]n3)ncnc2c1 [AZD2811] + C[C@@H]1COCCN1C2=NC(=NC(=C2)C3(CC3)[S@](=N)(=O)C)C4=C5C=CNC5=NC=C4 [AZD6738] (first compound max 1 µM, 7x7, partner max 10 µM)"
observable = "combination Emax"
value_measured = 0.738

[[record]]
molecule = "C=CCn1c(=O)c2cnc(Nc3ccc(N4CCN(C)CC4)cc3)nc2n1-c1cccc(C(C)(C)O)n1 [AZD1775] + C1CN(CCC1(C(=O)N[C@@H](CCO)C2=CC=C(C=C2)Cl)N)C3=NC=NC4=C3C=CN4 [Capivasertib] (first compound max 3 µM, partner max 3 µM)"
observable = "combination Emax"
value_measured = 0.873

[[record]]
molecule = "C=CCn1c(=O)c2cnc(Nc3ccc(N4CCN(C)CC4)cc3)nc2n1-c1cccc(C(C)(C)O)n1 [AZD1775] + CCc1c2c(nc3ccc(O)cc13)-c1cc3c(c(=O)n1C2)COC(=O)[C@]3(O)CC [SN-38] (first compound max 1 µM, partner max 0.3 µM)"
observable = "combination Emax"
value_measured = 0.634

[[record]]
molecule = "CN(C)CCCOc1ccc(-c2ccc3ncc4c(c3c2)n(C2CCOCC2)c(=O)n4C)cn1 [AZD0156] + CCN(CCO)CCCOc1ccc2c(Nc3cc(CC(=O)Nc4cccc(F)c4)[nH]n3)ncnc2c1 [AZD2811] (first compound max 1 µM, 7x7, partner max 1 µM)"
observable = "combination Emax"
value_measured = 0.542


---

test system: AN3-CA (Endometrial Carcinoma); test: Bliss excess, mean over the matrix (fraction); higher = more synergy;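 further: after 72 h of two-drug dosing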
The entries below come with measured Bliss excess values attached.
observable: Bliss excess

[[record]]
molecule = "CN(CCO)CC[C@H](CSc1ccccc1)Nc1ccc(S(=O)(=O)NC(=O)c2ccc(N3CCC([C@@H](O)c4ccccc4-c4ccc(Cl)cc4)CC3)cc2)cc1S(=O)(=O)C(F)(F)F [AZD4320] + Cc1cc2ncnn2cc1Nc1ncc2c(n1)n(C1CCOCC1)c(=O)n2C [AZD7648] (first compound max 1 µM, 7x7, partner max 10 µM)"
value_measured = -0.0057

[[record]]
molecule = "Cc1nc(Nc2ncc(C(=O)Nc3c(C)cccc3Cl)s2)cc(N2CCN(CCO)CC2)n1 [Dasatinib] + CC(=O)Nc1cccc(-n2c(=O)n(C3CC3)c(=O)c3c(Nc4ccc(I)cc4F)n(C)c(=O)c(C)c32)c1 [Trametinib] (first compound max 2 µM, 7x7, partner max 1 µM)"
value_measured = -0.168

[[record]]
molecule = "C[C@@H](c1ccc2nccn2c1)n1nnc2ncc(-c3cnn(C)c3)nc21 [Savolitinib] + Cc1c2c(nn1C)CSCc1cc(n(C)n1)CSc1cc(c3ccccc3c1)OCCCc1c(C(=O)O)n(C)c3c-2c(Cl)ccc13 [AZD5991] (first compound max 1 µM, 7x7, partner max 1 µM)"
value_measured = -0.0365

[[record]]
molecule = "CC1(C)CCC(CN2CCN(c3ccc(C(=O)NS(=O)(=O)c4ccc(NCC5CCOCC5)c([N+](=O)[O-])c4)c(Oc4cnc5[nH]ccc5c4)c3)CC2)=C(c2ccc(Cl)cc2)C1 [Venetoclax] + C=CCn1c(=O)c2cnc(Nc3ccc(N4CCN(C)CC4)cc3)nc2n1-c1cccc(C(C)(C)O)n1 [AZD1775] (first compound max 1 µM, partner max 1 µM)"
value_measured = -0.0253


---

tested on: RERF-LC-KJ (Lung Adenocarcinoma); assay: combination Emax (second highest fraction inhibited in the dose matrix, 72 h); higher = more inhibition; extreme values may be limits of the assay
Entry class follows combination Emax: low class (below 0.3), middle class (0.3 to below 0.4), high class (0.4 or more)

[[record]]
compound = "CN(CCO)CC[C@H](CSc1ccccc1)Nc1ccc(S(=O)(=O)NC(=O)c2ccc(N3CCC([C@@H](O)c4ccccc4-c4ccc(Cl)cc4)CC3)cc2)cc1S(=O)(=O)C(F)(F)F [AZD4320] + C[C@@H]1COCCN1C2=NC(=NC(=C2)C3(CC3)[S@](=N)(=O)C)C4=C5C=CNC5=NC=C4 [AZD6738] (first compound max 1 µM, 7x7, partner max 10 µM)"
system_under_test = "RERF-LC-KJ (Lung Adenocarcinoma)"
assigned_label = "middle class"

[[record]]
compound = "COc1cccc(OCCCN)c1-c1cc(Nc2cnc(C#N)cn2)n[nH]1 [Prexasertib] + O=C(c1cc(Cc2n[nH]c(=O)c3ccccc23)ccc1F)N1CCN(C(=O)C2CC2)CC1 [Olaparib] (first compound max 1 µM, 7x7, partner max 10 µM)"
system_under_test = "RERF-LC-KJ (Lung Adenocarcinoma)"
assigned_label = "low class"

[[record]]
compound = "Cc1cc2ncnn2cc1Nc1ncc2c(n1)n(C1CCOCC1)c(=O)n2C [AZD7648] + CCN(CCO)CCCOc1ccc2c(Nc3cc(CC(=O)Nc4cccc(F)c4)[nH]n3)ncnc2c1 [AZD2811] (first compound max 10 µM, 7x7, partner max 1 µM)"
system_under_test = "RERF-LC-KJ (Lung Adenocarcinoma)"
assigned_label = "high class"

[[record]]
compound = "CC1(C)CCC(CN2CCN(c3ccc(C(=O)NS(=O)(=O)c4ccc(NCC5CCOCC5)c([N+](=O)[O-])c4)c(Oc4cnc5[nH]ccc5c4)c3)CC2)=C(c2ccc(Cl)cc2)C1 [Venetoclax] + C1CN(CCC1(C(=O)N[C@@H](CCO)C2=CC=C(C=C2)Cl)N)C3=NC=NC4=C3C=CN4 [Capivasertib] (first compound max 1 µM, 7x7, partner max 3 µM)"
system_under_test = "RERF-LC-KJ (Lung Adenocarcinoma)"
assigned_label = "middle class"

[[record]]
compound = "C=CCn1c(=O)c2cnc(Nc3ccc(N4CCN(C)CC4)cc3)nc2n1-c1cccc(C(C)(C)O)n1 [AZD1775] + C1CN(CCC1(C(=O)N[C@@H](CCO)C2=CC=C(C=C2)Cl)N)C3=NC=NC4=C3C=CN4 [Capivasertib] (first compound max 3 µM, partner max 3 µM)"
system_under_test = "RERF-LC-KJ (Lung Adenocarcinoma)"
assigned_label = "high class"

[[record]]
compound = "CN(CCO)CC[C@H](CSc1ccccc1)Nc1ccc(S(=O)(=O)NC(=O)c2ccc(N3CCC([C@@H](O)c4ccccc4-c4ccc(Cl)cc4)CC3)cc2)cc1S(=O)(=O)C(F)(F)F [AZD4320] + Cc1cc2ncnn2cc1Nc1ncc2c(n1)n(C1CCOCC1)c(=O)n2C [AZD7648] (first compound max 1 µM, 7x7, partner max 10 µM)"
system_under_test = "RERF-LC-KJ (Lung Adenocarcinoma)"
assigned_label = "low class"

[[record]]
compound = "CN(CCO)CC[C@H](CSc1ccccc1)Nc1ccc(S(=O)(=O)NC(=O)c2ccc(N3CCC([C@@H](O)c4ccccc4-c4ccc(Cl)cc4)CC3)cc2)cc1S(=O)(=O)C(F)(F)F [AZD4320] + C[C@@H](Nc1cc(F)cc(F)c1)c1cc(C(=O)N(C)C)cc2c(=O)cc(N3CCOCC3)oc12 [AZD8186] (first compound max 1 µM, 7x7, partner max 3 µM)"
system_under_test = "RERF-LC-KJ (Lung Adenocarcinoma)"
assigned_label = "high class"

[[record]]
compound = "CC1(C)CCC(CN2CCN(c3ccc(C(=O)NS(=O)(=O)c4ccc(NCC5CCOCC5)c([N+](=O)[O-])c4)c(Oc4cnc5[nH]ccc5c4)c3)CC2)=C(c2ccc(Cl)cc2)C1 [Venetoclax] + Cc1cc2ncnn2cc1Nc1ncc2c(n1)n(C1CCOCC1)c(=O)n2C [AZD7648] (first compound max 1 µM, 7x7, partner max 10 µM)"
system_under_test = "RERF-LC-KJ (Lung Adenocarcinoma)"
assigned_label = "middle class"

[[record]]
compound = "CN(C)CCCOc1ccc(-c2ccc3ncc4c(c3c2)n(C2CCOCC2)c(=O)n4C)cn1 [AZD0156] + CCN(CCO)CCCOc1ccc2c(Nc3cc(CC(=O)Nc4cccc(F)c4)[nH]n3)ncnc2c1 [AZD2811] (first compound max 1 µM, 7x7, partner max 1 µM)"
system_under_test = "RERF-LC-KJ (Lung Adenocarcinoma)"
assigned_label = "middle class"

[[record]]
compound = "Cn1cnc2c(F)c(Nc3ccc(Br)cc3Cl)c(C(=O)NOCCO)cc21 [Selumetinib] + CC(C)n1c(=O)n(C)c2cnc3cc(F)c(-c4ccc(OCCCN5CCCCC5)nc4)cc3c21 [AZD1390] (first compound max 10 µM, 7x7, partner max 0.3 µM)"
system_under_test = "RERF-LC-KJ (Lung Adenocarcinoma)"
assigned_label = "low class"

[[record]]
compound = "CN(C)CCCOc1ccc(-c2ccc3ncc4c(c3c2)n(C2CCOCC2)c(=O)n4C)cn1 [AZD0156] + O=C(c1cc(Cc2n[nH]c(=O)c3ccccc23)ccc1F)N1CCN(C(=O)C2CC2)CC1 [Olaparib] (first compound max 3 µM, partner max 3 µM)"
system_under_test = "RERF-LC-KJ (Lung Adenocarcinoma)"
assigned_label = "middle class"


Cited source for all entries: the supplement of paper PMC11061612
